Provenance of the data: patent US20020049223A1

Tested on: Escherichia coli JUHL
Assay remarks: Assay B: in vitro antibacterial activity, broth microdilution MIC (NCCLS)
Format: cell-based
Study conditions: Table 2, Assay B, cation-adjusted Mueller Hinton broth, 35° C., 16 to 20 hr; code D = Escherichia coli JUHL; unit assumed
Task for the reader: assign each of the following molecules its reported Antibacterial Activity (MIC's), D.
# number only, unit µg/mL dropped from output

Problem: Form field: reported Antibacterial Activity (MIC's), D of COc1c(-c2cc3c(s2)S(=O)(=O)CCC3N)ccc2c(=O)c(C(=O)O)cn(C3CC3)c12.Cl (stereo not shown)
Solution: 64

Problem: Suppose we examine the molecule Cc1c(F)c(-c2cc3c(s2)C(N)CCC3)nc2c1c(=O)c(C(=O)O)cn2C1CC1.Cl (stereo not shown) ; what Antibacterial Activity (MIC's), D value has been reported?
Solution: 0.06

Problem: What does the record list as Antibacterial Activity (MIC's), D for COc1c(-c2cc3c(s2)CCC(N)C3)ccc2c(=O)c(C(=O)O)cn(C3CC3)c12.Cl (stereo not shown) ?
Solution: 0.06

Problem: What does the record list as Antibacterial Activity (MIC's), D for COc1c(-c2cc3c(s2)CCCC3=NOCc2ccccc2)ccc2c(=O)c(C(=O)O)cn(C3CC3)c12 ?
Solution: 0.5
